Measured Ki of individual entries
- Experimental system: κ opioid receptor (Homo sapiens)
- Construct: expressed in transfected cells; host or cells: CHO cells (membranes)
- Method notes: Competition binding assay on membranes of CHO cells expressing κ opioid receptor, [3H]-labeled ligand
- Experimental setup: Table 4-1; read-out: κOR Ki
Structures can show the parent of a compound that is named as a salt.
Write the answer as a number in nM, unit excluded.

[
  {
    "Compound": "CN(C)C[C@H]1CN(C(=O)Cc2cc(F)c(F)cc2F)CC[C@]1(O)c1cccc(O)c1",
    "Ki, nM": 42.3
  }
]

I'd like to know its Ki. The compound in question is "CN(C)C[C@@H]1CN(C(=O)Cc2cc(F)c(F)cc2F)CC[C@@]1(O)c1cccc(O)c1"
127

For the compound shown here, CN(C)C[C@H]1CN(S(=O)(=O)Cc2ccccc2)CC[C@]1(O)c1cccc(O)c1 [hydrochloride] , give the reported Ki.
231

Sample CN(C)C[C@@H]1CN(S(=O)(=O)Cc2ccccc2)CC[C@@]1(O)c1cccc(O)c1 [hydrochloride] — what was its Ki?
33.7

---

- Experimental system: μ opioid receptor (Homo sapiens)
- Construct: expressed in transfected cells; host or cells: CHO cells (membranes)
- Method notes: Competition binding assay on membranes of CHO cells expressing μ opioid receptor, [3H]-labeled ligand
- Experimental setup: 0.5 h; Table 5-1; 1 μM concentration of compound; read-out: μOR Combination rate (%)
Structures can show the parent of a compound that is named as a salt.
Catalogue of inhibition at 1 µM readings, one per entry.
Hi! Could you send only the number? It should be in %, unit omitted.

[
  {
    "Compound": "COc1cccc(C2(O)CCN(C(=O)Cc3cccc(C(F)(F)F)c3)CC2CN(C)C)c1.Cl (stereo not drawn) [FWBE4, hydrochloride]",
    "Measurement unit": "%",
    "inhibition at 1 µM": 37.8
  },
  {
    "Compound": "COc1cccc(C2(O)CCN(C(=O)Cn3cnnn3)CC2CN(C)C)c1.Cl (stereo not drawn) [FWBE7, hydrochloride]",
    "Measurement unit": "%",
    "inhibition at 1 µM": 0
  },
  {
    "Compound": "COc1cccc(C2(O)CCN(C(=O)Cc3cccc(OC(F)(F)F)c3)CC2CN(C)C)c1.Cl (stereo not drawn) [FWBE6, hydrochloride]",
    "Measurement unit": "%",
    "inhibition at 1 µM": 21.5
  },
  {
    "Compound": "COc1cccc(C2(O)CCN(C(=O)Cc3ccccc3Cl)CC2CN(C)C)c1 (stereo not drawn) [FWBE20, hydrochloride]",
    "Measurement unit": "%",
    "inhibition at 1 µM": 28.3
  },
  {
    "Compound": "COc1cccc(C2(O)CCN(C(=O)c3cc(F)c(F)cc3F)CC2CN(C)C)c1.Cl (stereo not drawn) [FWBE5, hydrochloride]",
    "Measurement unit": "%",
    "inhibition at 1 µM": 13
  },
  {
    "Compound": "COc1cccc(C2(O)CCCCC2CN(C)C)c1 (stereo not drawn) [Tramadol, reference compound]",
    "Measurement unit": "%",
    "inhibition at 1 µM": 6
  },
  {
    "Compound": "COc1cccc(C2(O)CCN(C(=O)Cc3cccc(C#N)c3)CC2CN(C)C)c1.Cl (stereo not drawn) [FWBE21, hydrochloride]",
    "Measurement unit": "%",
    "inhibition at 1 µM": 28.9
  },
  {
    "Compound": "COc1cccc(C2(O)CCN(C(=O)Cc3cc(F)c(F)cc3F)CC2CN(C)C)c1.Cl (stereo not drawn) [FWBE18, hydrochloride]",
    "Measurement unit": "%",
    "inhibition at 1 µM": 29.7
  }
]

--- query ---
Look up inhibition at 1 µM with μ opioid receptor (Homo sapiens) for this compound: COc1cccc(C2(O)CCN(C(=O)Cc3ccc(Cl)cc3)CC2CN(C)C)c1.Cl (stereo not drawn) [FWBE19, hydrochloride]
25.2

---

- Experimental system: δ opioid receptor (Homo sapiens, UniProt P41143)
- Construct: expressed in transfected cells; host or cells: CHO cells (membranes)
- Method notes: Competition binding assay on membranes of CHO cells expressing δ opioid receptor, [3H]-labeled ligand
- Experimental setup: Table 4-1; read-out: δOR Ki
Where a name gives a salt, the structure may show the parent alone.
The compounds listed here are annotated with their Ki.
Reply numerically in nM, unit not repeated.

[
  {
    "Compound": "CN(C)C[C@H]1CN(S(=O)(=O)Cc2ccccc2)CC[C@]1(O)c1cccc(O)c1 [hydrochloride]",
    "Quantitative readout": 1090
  },
  {
    "Compound": "CN(C)C[C@H]1CN(C(=O)Cc2cc(F)c(F)cc2F)CC[C@]1(O)c1cccc(O)c1",
    "Quantitative readout": 3560
  },
  {
    "Compound": "CN(C)C[C@@H]1CN(S(=O)(=O)Cc2ccccc2)CC[C@@]1(O)c1cccc(O)c1 [hydrochloride]",
    "Quantitative readout": 1100
  }
]

Quick one: Ki of "CN(C)C[C@@H]1CN(C(=O)Cc2cc(F)c(F)cc2F)CC[C@@]1(O)c1cccc(O)c1" ?
178

---

- Experimental system: κ opioid receptor (Homo sapiens)
- Construct: expressed in transfected cells; host or cells: CHO cells (membranes)
- Method notes: Competition binding assay on membranes of CHO cells expressing κ opioid receptor, [3H]-labeled ligand
- Experimental setup: 0.5 h; Table 2-1; 1 μM concentration of compound; read-out: κOR Binding rate (%)
Recorded inhibition at 1 µM values for a group of compounds are listed next.
Answer with a number only, understood to be in %.

[
  {
    "Compound": "COc1cccc(C2(O)CCN(S(=O)(=O)Cc3ccc(Cl)cc3)CC2CN(C)C)c1.Cl (stereo not drawn) [FWBH11, hydrochloride]",
    "Measurement unit": "%",
    "Quantitative readout": 36.6
  },
  {
    "Compound": "CCCCS(=O)(=O)N1CCC(O)(c2cccc(OC)c2)C(CN(C)C)C1.Cl (stereo not drawn) [FWBH15, hydrochloride]",
    "Measurement unit": "%",
    "Quantitative readout": 9.86
  },
  {
    "Compound": "CCS(=O)(=O)N1CCC(O)(c2cccc(OC)c2)C(CN(C)C)C1.Cl (stereo not drawn) [FWBH18, hydrochloride]",
    "Measurement unit": "%",
    "Quantitative readout": 13.5
  },
  {
    "Compound": "C=CCS(=O)(=O)N1CCC(O)(c2cccc(OC)c2)C(CN(C)C)C1.Cl (stereo not drawn) [FWBH21, hydrochloride]",
    "Measurement unit": "%",
    "Quantitative readout": 17.1
  },
  {
    "Compound": "COc1cccc(C2(O)CCN(S(=O)(=O)Cc3ccccc3F)CC2CN(C)C)c1.Cl (stereo not drawn) [FWBH14, hydrochloride]",
    "Measurement unit": "%",
    "Quantitative readout": 17.6
  }
]

Reported inhibition at 1 µM for COc1cccc(C2(O)CCN(S(=O)(=O)Cc3cccc([N+](=O)[O-])c3)CC2CN(C)C)c1.Cl (stereo not drawn) [FWBH22, hydrochloride] : what is it?
32.7

// lookup inhibition at 1 µM for COc1cccc(C2(O)CCN(S(=O)(=O)Cc3cccc(Cl)c3)CC2CN(C)C)c1.Cl (stereo not drawn) [FWBH7, hydrochloride]
0

Any idea what its inhibition at 1 µM is? The compound is CN(C)CC1CN(S(=O)(=O)Cc2ccccc2)CCC1(O)c1cccc(OC(F)(F)F)c1.Cl (stereo not drawn) [hydrochloride]
21.4

Query (compound): COc1cccc(C2(O)CCN(S(=O)(=O)Cc3ccc(C(F)(F)F)cc3)CC2CN(C)C)c1.Cl (stereo not drawn) [FWBH17, hydrochloride] ; field requested: inhibition at 1 µM
25.4

Consider the compound COc1cccc(C2(O)CCN(S(=O)(=O)Cc3cccc(C(F)(F)F)c3)CC2CN(C)C)c1.Cl (stereo not drawn) [FWBH10, hydrochloride] and give its measured inhibition at 1 µM.
30.1

Entry COc1cccc(C2(O)CCN(S(=O)(=O)Cc3ccc(F)cc3)CC2CN(C)C)c1.Cl (stereo not drawn) [FWBH12, hydrochloride] : reported inhibition at 1 µM = ?
45.9

Could you tell me which inhibition at 1 µM is on file for COc1cccc(C2(O)CCN(S(=O)(=O)Cc3cccc(Br)c3)CC2CN(C)C)c1.Cl (stereo not drawn) [FWBH13, hydrochloride] ?
42.1

Requested field: inhibition at 1 µM. Item: COc1cccc(C2(O)CCN(S(=O)(=O)c3ccccc3)CC2CN(C)C)c1.Cl (stereo not drawn) [FWBH16, hydrochloride]
32.6

Item COc1cccc(C2(O)CCN(S(=O)(=O)C(C)C)CC2CN(C)C)c1.Cl (stereo not drawn) [FWBH20, hydrochloride] has what recorded inhibition at 1 µM?
6.88

Quick check: inhibition at 1 µM of COc1cccc(C2(O)CCN(S(=O)(=O)Cc3ccc(C)cc3)CC2CN(C)C)c1.Cl (stereo not drawn) [FWBH8, hydrochloride] ?
29
